Test system: Staphylococcus aureus
protocol.details: Antibacterial activity against Staphylococcus aureus ATCC 25923 measured after 12 to 18 hrs
Type: functional
Examples of compounds with documented MIC follow.
value.kind: MIC (µg/mL)

[[record]]
smiles_structure = "CCCC[n+]1nn(-c2ccc([N+](=O)[O-])cc2)c2c1C(=O)c1ccccc1C2=O.O=S(=O)([O-])C(F)(F)F"
value_kind = "MIC"
readout_unit = "µg/mL"
value_measured = 4

[[record]]
smiles_structure = "C[n+]1nn(-c2ccc([N+](=O)[O-])cc2)c2c1C(=O)c1ccccc1C2=O.O=S(=O)([O-])C(F)(F)F"
value_kind = "MIC"
readout_unit = "µg/mL"
value_measured = 2

[[record]]
smiles_structure = "C[n+]1nn(-c2ccc(F)cc2)c2c1C(=O)c1ccccc1C2=O.O=S(=O)([O-])C(F)(F)F"
value_kind = "MIC"
readout_unit = "µg/mL"
value_measured = 1

[[record]]
smiles_structure = "CCCCCCCC[n+]1nn(-c2ccc([N+](=O)[O-])cc2)c2c1C(=O)c1ccccc1C2=O.O=S(=O)([O-])C(F)(F)F"
value_kind = "MIC"
readout_unit = "µg/mL"
value_measured = 8

[[record]]
smiles_structure = "C[n+]1nn(-c2ccc(C#N)cc2)c2c1C(=O)c1ccccc1C2=O.O=S(=O)([O-])C(F)(F)F"
value_kind = "MIC"
readout_unit = "µg/mL"
value_measured = 2

[[record]]
smiles_structure = "COc1ccc(-n2n[n+](-c3ccc(OC)c(OC)c3)c3c2C(=O)c2ccccc2C3=O)cc1OC.O=S(=O)([O-])C(F)(F)F"
value_kind = "MIC"
readout_unit = "µg/mL"
value_measured = 4

